- Test system: M14 melanoma
- assay.method.text: NCI tumour cell line growth inhibition, 48 h
measurement.type: TGI

Completed entries (count: 5):
C=CCO/N=C/c1cc(NC(=S)c2ccoc2C)ccc1Cl    37.9 µM
COC(=O)/C(C#N)=C1\CCC(C(=O)OC)N1C (stereo unspecified)    > 100 µM
Cc1cc2[nH]c3[nH]c(=O)[nH]c(=O)c3c2cc1C    > 100 µM
COc1ccc(CC(O)CN2CCOCC2)cc1 (stereo unspecified)    > 100 µM
O=C(NC12CC3CC(CC(C3)C1)C2)C(=O)c1c[nH]c2ccc(Cl)cc12    > 100 µM

get_value(item= C/C(CC1C2CCCC1C2)=N\NC(N)=O (stereo unspecified) , readout=TGI) returns > 100 µM

// TGI value for CCN(CCO)CC1COc2ccccc2O1 (stereo unspecified) : > 100 µM

The measured TGI associated with "Oc1ccccc1/C=N/c1nc2cc3sc(/N=C/c4ccccc4O)nc3cc2s1" reads > 100 µM

Entry under test: "C/C=C/C=C/c1nc(C#N)c(N)o1" . Its TGI was > 100 µM

// sample "CC(C)COP(=O)(OCC(C)C)C(NS(=O)(=O)c1ccccc1)(C(F)(F)F)C(F)(F)F" , its TGI was 43.2 µM

Lookup result for COC1OC(C)C(OCc2ccccc2)C(OS(=O)(=O)c2ccc(C)cc2)C1OS(=O)(=O)c1ccc(C)cc1 (stereo unspecified) ; measured TGI: > 100 µM

Lab note: CCCNC(=O)CCC(C)[C@H]1CCC2C3C(C[C@H](OC(C)=O)[C@@]21C)[C@@]1(C)CCC2(C[C@H]1C[C@H]3OC(C)=O)OOC1(CCC(C)CC1)OO2 (stereo partly specified) gave TGI of > 100 µM

# TGI (molecule: "Cc1ccc2c(c1)Sc1ccc(N=NN(C)C)cc1N2C" ) is > 100 µM

"C[C@H]1[C@H](C)CC[C@]2(C(=O)NCCNCCN)CC[C@]3(C)C(=CC[C@@H]4[C@@]5(C)CCC(=O)C(C)(C)[C@@H]5CC[C@]43C)[C@H]12" has a reported TGI of 3.41 µM
